System: HCC-2998 colon
testName: NCI tumour cell line growth inhibition, 48 h
reportedMetric: TGI

INSERT INTO results (compound, studytarget, reportedmetric, recordedvalue) VALUES
  ('O=C(O)c1ccc(S(=O)(=O)N=Nc2c(O)[nH]c3ccccc23)cc1', 'HCC-2998 colon', 'TGI', '> 100 µM'),
  ('COc1ccc(/C(Cl)=C(\C=O)c2ccc(OC)c(OC)c2)cc1OC', 'HCC-2998 colon', 'TGI', '> 100 µM'),
  ('N#CCC(=O)N/N=C1/C(=O)NC(=O)C(=O)C1c1nc2ccccc2s1 (stereo unspecified)', 'HCC-2998 colon', 'TGI', '> 100 µM'),
  ('CC1(C)C=C(/C=N/Nc2ccc(Br)cc2)C(C#N)=C(O)C1(C#N)C#N', 'HCC-2998 colon', 'TGI', '> 100 µM'),
  ('O=c1oc2ccccc2cc1-c1nnc(-c2ccccc2)s1', 'HCC-2998 colon', 'TGI', '> 100 µM'),
  ('C=C1CC2(OC1=O)c1ccccc1C=Cc1ccccc12', 'HCC-2998 colon', 'TGI', '13.5 µM'),
  ('CN1CC2=C(NC(=S)NC2c2ccc(Cl)cc2)/C(=C/c2ccc(Cl)cc2)C1 (stereo unspecified)', 'HCC-2998 colon', 'TGI', '34 µM'),
  ('NC12CC3CC(C1)CC(Cl)(C3)C2', 'HCC-2998 colon', 'TGI', '> 100 µM'),
  ('C[C@]12CC(c3ccccc3O1)C(C#N)C(=O)N2 (stereo partly specified)', 'HCC-2998 colon', 'TGI', '> 100 µM'),
  ('C[C@H]1C(OCCOC2O[C@@H]3O[C@@]4(C)CC[C@H]5[C@H](C)CCC([C@H]2C)[C@@]35O4)O[C@@H]2O[C@@]3(C)CC[C@H]4[C@H](C)CCC1[C@@]24O3 (stereo partly specified)', 'HCC-2998 colon', 'TGI', '43.7 µM'),
  ('CC1(C)C=[N+]([O-])C(C)(C)N1', 'HCC-2998 colon', 'TGI', '> 100 µM');
